Entries below carry reported IC50 on CtermHisTag-mEGFR Wild type (Homo sapiens, UniProt P00533).
Sequence (P00533 25-1210): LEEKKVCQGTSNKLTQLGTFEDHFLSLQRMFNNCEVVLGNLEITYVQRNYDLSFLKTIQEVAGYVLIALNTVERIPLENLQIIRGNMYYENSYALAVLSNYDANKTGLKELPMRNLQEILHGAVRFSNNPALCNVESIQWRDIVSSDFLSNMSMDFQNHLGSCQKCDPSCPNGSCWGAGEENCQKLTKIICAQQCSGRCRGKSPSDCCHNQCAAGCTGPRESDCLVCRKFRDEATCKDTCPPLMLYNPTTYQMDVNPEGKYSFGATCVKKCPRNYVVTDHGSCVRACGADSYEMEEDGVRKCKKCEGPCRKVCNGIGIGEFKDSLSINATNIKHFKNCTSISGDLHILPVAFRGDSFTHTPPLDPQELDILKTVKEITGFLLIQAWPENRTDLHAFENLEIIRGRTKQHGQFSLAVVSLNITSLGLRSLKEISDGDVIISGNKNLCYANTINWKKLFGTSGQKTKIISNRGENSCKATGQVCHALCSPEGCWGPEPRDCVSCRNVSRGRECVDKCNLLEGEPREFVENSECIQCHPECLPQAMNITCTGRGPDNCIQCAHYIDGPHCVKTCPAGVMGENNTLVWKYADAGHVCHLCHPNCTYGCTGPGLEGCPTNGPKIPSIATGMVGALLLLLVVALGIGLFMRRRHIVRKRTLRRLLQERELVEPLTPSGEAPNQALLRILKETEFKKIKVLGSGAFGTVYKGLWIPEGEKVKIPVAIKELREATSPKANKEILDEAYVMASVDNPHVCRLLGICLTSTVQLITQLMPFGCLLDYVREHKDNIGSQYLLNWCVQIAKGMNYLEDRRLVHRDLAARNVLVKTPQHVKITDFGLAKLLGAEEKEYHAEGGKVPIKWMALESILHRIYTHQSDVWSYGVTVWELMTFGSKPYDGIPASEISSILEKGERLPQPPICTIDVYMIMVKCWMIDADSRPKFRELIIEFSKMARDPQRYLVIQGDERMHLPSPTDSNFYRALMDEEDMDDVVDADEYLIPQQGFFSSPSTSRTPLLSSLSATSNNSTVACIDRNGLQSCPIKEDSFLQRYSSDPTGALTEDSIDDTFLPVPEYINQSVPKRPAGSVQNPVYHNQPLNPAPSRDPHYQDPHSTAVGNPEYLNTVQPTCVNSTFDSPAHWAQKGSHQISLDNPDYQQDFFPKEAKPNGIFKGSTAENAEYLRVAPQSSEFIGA

Previously resolved entries follow.
C#Cc1cc(N2C(=O)N(C)CC23CCCC3)nc2nc(Nc3ccc(S(C)(=O)=O)cc3)ncc12 = > 10000 nM
C#Cc1cc(NC(=O)NC2(C)CCOC2)nc2nc(Nc3ccc(N4CCN(C)CC4)cc3)ncc12 (stereo not drawn) = < 1000 nM
C#Cc1cc(Oc2ccccc2)nc2nc(Nc3ccc(N4CCN(C)CC4)cc3)ncc12 = > 10000 nM
C#Cc1cc(NC(=O)NC2CCCC2)nc2nc(Nc3ccc(N(C)C(C)=O)cc3)ncc12 = < 1000 nM
C#Cc1cc(N(C)C)nc2nc(Nc3ccc(N(C)CCN(C)C)cc3)ncc12 = > 10000 nM
C#Cc1cc(N2C(=O)NCC23CCCC3)nc2nc(Nc3ccc(S(=O)(=O)N(C)CCN(C)C)cc3)ncc12 = < 1000 nM

Ask: Item under review: C#Cc1cc(NC(=O)NC2(C(F)(F)F)CCCC2)nc2nc(Nc3ccc(N4CCN(C)CC4)cc3)ncc12 . Reported IC50?
Reply: < 1000 nM

Ask: Can you look up the measured IC50 of C#Cc1cc(OC)nc2nc(Nc3ccc(N4CCN(C)CC4)c(Nc4ccccc4)c3)ncc12 for me?
Reply: 1000 to 10000 nM

Ask: Data request, read-out IC50, for C#Cc1cc(NC(=O)NC2CCCC2)nc2nc(Nc3ccc(N4CCN(C)CC4)cc3)ncc12
Reply: < 1000 nM
